molecular target: Nav1.7 (or SCN9A) channel; HEK cells stably transfected with hSCN9A (Homo sapiens, UniProt Q15858); construct: expressed in transfected cells; experiment: Nav1.7 block, PatchXpress 7000 automated whole-cell voltage clamp, estimated IC50 (EIC50); assay type: cell-based; conditions: estimated IC50; hSCN9A HEK cells, PatchXpress platform; Examples 283-814
Sequence (Q15858 whole entry): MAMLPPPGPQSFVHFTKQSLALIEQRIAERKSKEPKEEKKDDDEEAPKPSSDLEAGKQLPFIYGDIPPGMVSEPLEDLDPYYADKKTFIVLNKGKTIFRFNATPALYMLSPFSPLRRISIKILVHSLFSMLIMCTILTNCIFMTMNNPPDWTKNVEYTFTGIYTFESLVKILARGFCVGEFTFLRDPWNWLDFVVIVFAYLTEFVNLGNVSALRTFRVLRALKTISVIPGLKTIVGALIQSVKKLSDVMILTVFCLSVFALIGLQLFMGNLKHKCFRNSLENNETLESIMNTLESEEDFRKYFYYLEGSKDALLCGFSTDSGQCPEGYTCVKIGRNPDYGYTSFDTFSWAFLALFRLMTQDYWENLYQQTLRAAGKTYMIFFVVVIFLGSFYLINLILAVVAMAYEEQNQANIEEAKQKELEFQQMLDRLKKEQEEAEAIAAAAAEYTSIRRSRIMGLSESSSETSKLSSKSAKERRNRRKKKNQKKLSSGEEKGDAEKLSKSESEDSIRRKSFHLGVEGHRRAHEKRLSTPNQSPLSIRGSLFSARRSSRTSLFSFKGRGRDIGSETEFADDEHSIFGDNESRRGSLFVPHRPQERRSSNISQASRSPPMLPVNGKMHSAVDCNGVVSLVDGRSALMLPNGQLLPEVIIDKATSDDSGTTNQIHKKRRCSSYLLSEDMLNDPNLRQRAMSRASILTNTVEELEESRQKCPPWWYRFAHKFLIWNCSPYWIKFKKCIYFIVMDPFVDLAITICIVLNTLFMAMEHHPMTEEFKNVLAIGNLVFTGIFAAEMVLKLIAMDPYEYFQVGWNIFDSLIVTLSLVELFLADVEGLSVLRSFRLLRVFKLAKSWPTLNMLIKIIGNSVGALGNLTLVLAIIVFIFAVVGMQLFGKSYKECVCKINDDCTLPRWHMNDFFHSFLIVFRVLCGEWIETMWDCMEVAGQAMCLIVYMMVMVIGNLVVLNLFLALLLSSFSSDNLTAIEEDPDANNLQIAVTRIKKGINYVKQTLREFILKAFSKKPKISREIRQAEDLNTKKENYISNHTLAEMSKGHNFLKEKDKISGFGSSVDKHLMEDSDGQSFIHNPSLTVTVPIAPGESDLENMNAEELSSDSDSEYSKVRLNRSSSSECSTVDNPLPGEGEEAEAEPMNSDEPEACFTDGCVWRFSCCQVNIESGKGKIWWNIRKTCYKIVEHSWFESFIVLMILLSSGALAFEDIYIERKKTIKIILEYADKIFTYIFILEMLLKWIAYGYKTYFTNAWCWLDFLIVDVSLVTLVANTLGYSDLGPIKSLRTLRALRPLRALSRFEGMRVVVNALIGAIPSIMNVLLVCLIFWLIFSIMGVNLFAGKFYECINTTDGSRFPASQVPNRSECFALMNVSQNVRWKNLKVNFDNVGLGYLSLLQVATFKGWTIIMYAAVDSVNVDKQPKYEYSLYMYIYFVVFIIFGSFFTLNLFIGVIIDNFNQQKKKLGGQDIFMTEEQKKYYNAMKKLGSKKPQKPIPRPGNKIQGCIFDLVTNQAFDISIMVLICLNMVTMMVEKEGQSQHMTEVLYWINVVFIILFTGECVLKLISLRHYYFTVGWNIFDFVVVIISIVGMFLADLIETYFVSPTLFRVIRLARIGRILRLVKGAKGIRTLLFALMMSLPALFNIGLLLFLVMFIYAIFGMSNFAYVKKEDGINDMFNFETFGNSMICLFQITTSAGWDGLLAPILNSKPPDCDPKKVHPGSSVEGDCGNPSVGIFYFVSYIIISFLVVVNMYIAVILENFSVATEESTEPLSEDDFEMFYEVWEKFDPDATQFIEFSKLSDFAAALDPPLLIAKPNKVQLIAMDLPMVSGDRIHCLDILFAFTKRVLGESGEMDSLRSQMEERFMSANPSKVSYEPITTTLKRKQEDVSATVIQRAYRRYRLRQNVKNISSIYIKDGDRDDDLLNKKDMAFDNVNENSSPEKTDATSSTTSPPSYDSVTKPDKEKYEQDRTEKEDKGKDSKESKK
endpoint_name: IC50

>>> obs_value("N#Cc1ccnc(NS(=O)(=O)c2ccc(Oc3ccccc3-c3ccccc3)c(C#N)c2)c1 [Example 422]")
">1000 nM"
>>> obs_value("Cc1nnc(-c2ccc(Oc3ccc(S(=O)(=O)Nc4ccc(F)cn4)cc3C#N)cc2)o1 [Example 576]")
">3000 nM"
>>> obs_value("CN(C)C(=O)c1cnn(-c2ccc(Oc3ccc(S(=O)(=O)Nc4nccs4)cc3C#N)cc2)c1 [Example 375]")
">1000 nM"

*Q* Name the reported IC50 value associated with the molecule CC(C)Oc1cc(-c2cc(F)ccc2Oc2ccc(S(=O)(=O)Nc3cscn3)cc2C#N)n(C)n1 [Example 396]
*A* >3000 nM
